Quick reference for EC50 among some compounds
# Test system: normal human lung fibroblasts (Wi-38)
# method.summary: MTT cytotoxicity screening on normal human lung fibroblasts
# Assay type: cell-based
# measurement.parameters: WI-38, 72 h, read-out: Wi-38 EC50
The response must be a number in nM with no trailing unit.

O=C(c1nc2ccccc2[nH]1)[C@H]1[C@H](c2ccco2)[C@H]2CCCN2[C@@]12c1ccccc1-c1nc3ccccc3nc12 | 607
O=C(c1nc2ccccc2[nH]1)[C@H]1[C@H](c2ccc(F)cc2)[C@H]2CCCN2[C@@]12c1ccccc1-c1nc3ccccc3nc12 | 217
O=C(c1nc2ccccc2[nH]1)[C@H]1[C@H](c2ccc(Br)cc2)[C@H]2CCCN2[C@@]12c1ccccc1-c1nc3ccccc3nc12 | 176
O=C(c1nc2ccccc2[nH]1)[C@H]1[C@H](c2ccc(Cl)cc2Cl)[C@H]2CCCN2[C@@]12c1ccccc1-c1nc3ccccc3nc12 | 887
O=C(c1nc2ccccc2[nH]1)[C@H]1[C@H](c2ccco2)C2CC3CCCCC3N2[C@@]12c1ccccc1-c1nc3ccccc3nc12 (stereo partly drawn) | 112

Moving on to the next compound.
Query: Entry under review: O=C(c1nc2ccccc2[nH]1)[C@H]1[C@H](c2cccc(F)c2)C2CC3CCCCC3N2[C@@]12c1ccccc1-c1nc3ccccc3nc12 (stereo partly drawn) . Reported EC50?
Response: 114
